Test: drug combination growth inhibition, ovarian cancer – cell-based, oncology-focused library, rucaparib conditional, profiling panel (AID 1508598)
Conditions: patient-derived ovarian cancer cells, CellTiter-Glo viability, 144 h; at 0.0781 µM; OCI-C5x cells; with rucaparib 10 µM; stronger effect = lower value; 100% = cells with rucaparib alone
Reported viability values are given for each entry in this list.
# value in %; strip the unit string

C=C1/C(=C/C=C2\CCC[C@@]3(C)[C@H]2CC[C@H]3[C@H](C)/C=C/[C@@H](C)C(C)C)C[C@H](O)C[C@@H]1O: 97.1
COc1cc(=C2C=c3ccccc3=N2)[nH]/c1=C\c1[nH]c(C)cc1C: 110
COc1cccc2c1C(=O)c1c(O)c3c(c(O)c1C2=O)C[C@@](O)(C(C)=O)C[C@H]3O[C@H]1C[C@H](N)[C@H](O)[C@H](C)O1: 180
C[C@]12C=CC(=O)C=C1CC[C@@H]1[C@H]2C(=O)C[C@@]2(C)[C@H]1CC[C@@]2(O)C(=O)CO: 109

Task: Report viability for "C[C@@H]1C[C@H]2[C@@H]3CCC4=CC(=O)C=C[C@]4(C)[C@]3(F)[C@H](O)C[C@]2(C)[C@]1(O)C(=O)CO" please.
Result: 108

Task: Report viability for "CCC(C)(C)C(=O)O[C@@H]1C[C@@H](C)C=C2C=C[C@H](C)[C@@H](CC[C@@H]3C[C@@H](O)CC(=O)O3)[C@H]21" please.
Result: 76.6

Task: Which viability value is on record for "O=C(O)c1cc(I)ccc1NC(=O)[C@H](Cc1ccccc1)NCc1ccccc1" ?
Result: 124

----------
The entries below are paired with their reported inhibition.
Experiment: growth inhibition, single agents and combos, LFS_MB_1R, cell-based, cisplatin or BGB combos, synergistic combos for chromothripsis tumors (AID 1671452);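 further: cells exposed for 96 hours before readout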
Conditions: LFS_MB_1R medulloblastoma cells, at 0.5 µM, stronger effect = higher value
Quick note: give the figure in %, leave out the unit.

Use these answered entries as a reference point.
CC(C)(C#N)c1ccc(N2C(=O)OCc3cnc4ccc(-c5cnc6ccccc6c5)cc4c32)cc1: -13.4
Nc1ccccc1NC(=O)c1cnccn1: -27.6
COc1cccc2c1C(=O)c1c(O)c3c(c(O)c1C2=O)CC(O)(C(=O)CO)CC3OC1CC(N)C(OC2CCCCO2)C(C)O1 (configuration not stated): 60.2
C=CC1=C(C)C2=CC3=NC(=C(CC(=O)O)C4=NC(=C(C)C4=C(O)O)C=c4[nH]c(c(C)c4CC)=CC1=N2)C(CCC(=O)O)C3C (configuration not stated): -18.3

Task: Given the entry "Cc1ccc([N+](=O)[O-])cc1S(=O)(=O)N(C)/N=C\c1cnc2ccc(Br)cn12" , report its measured inhibition.
Result: 97.7

Task: So what does the record say about inhibition for N#Cc1ccc(OC2CCC(NC(=O)CCSc3nc4ccccc4c(=O)[nH]3)CC2)cc1 (configuration not stated) ?
Result: -15.5

Task: Record request: inhibition value, item NC(=O)c1ncn(C2OC(CO)C(O)C2O)c1O (configuration not stated)
Result: -1.69

----------
Assay: P. berghei load reduction in hepatocytes – cell-based, HepG2, luciferase luminescence, HepG2 viability, primary screen (AID 624349);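 further: 100% = mean of DMSO negative control wells on the same plate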
Conditions: P. berghei liver stage in HepG2, luciferase luminescence, concentration not given here; measured here: HepG2 viability without parasites
measurement kind: viability (%)
Enter your answer as a number in %; do not include the unit.

Cc1cncc2cccc(S(=O)(=O)N3CCCN(C(=O)CN)C[C@H]3C)c12: 68.1
CCOC(=O)Oc1c(OC)cc(C(=O)O[C@@H]2C[C@@H]3CN4CCc5c([nH]c6cc(OC)ccc56)[C@H]4C[C@@H]3[C@H](C(=O)OC)[C@H]2OC)cc1OC: 98.5
CC(C)[N+]1(C)[C@@H]2CC[C@@H]1CC(OC(=O)C(CO)c1ccccc1)C2 (some centres not stated): 107
N.N.O=C(O)CO.[Pt]: 108
O=C(O)/C=C/c1cc(Br)c(Br)c(Br)c1Br: 98.8
CC(C)n1cnc2c(NCc3ccccc3O)nc(NCCCO)nc21: 118
NC[C@H]1O[C@H](OC2[C@@H](N)C[C@@H](N)[C@H](O)[C@H]2O[C@@H]2O[C@H](CO)[C@@H](O)[C@H]2O)[C@H](N)[C@@H](O)[C@@H]1O (some centres not stated): 92.8
CCC(C)[C@H]1O[C@]2(CC[C@@H]1C)C[C@@H]1C[C@@H](C/C=C(\C)[C@@H](OC3C[C@H](OC)C(O[C@H]4C[C@H](OC)[C@@H](O)[C@H](C)O4)[C@H](C)O3)[C@@H](C)/C=C/C=C3\CO[C@@H]4[C@H](O)C(C)=C[C@@H](C(=O)O1)[C@]34O)O2 (some centres not stated): 90.4
C=CC1=C(C(=O)O)N2C(=O)[C@@H](NC(=O)/C(=N\OCC(=O)O)c3csc(N)n3)[C@H]2SC1: 105
N#Cc1cnc2cnc(NCc3cccnc3)cc2c1Nc1ccc(F)c(Cl)c1: 84.2

Task: Can you look up the measured viability of "O=[N+]([O-])c1ccc(CNc2nc(NCc3cccc(C(F)(F)F)c3)nc3nc[nH]c23)cc1" for me?
Result: 142

Task: Entry under review: CCCC1C(=O)N2C(N(C)C)=Nc3ccc(C)cc3N2C1=O (configuration not stated) . Reported viability?
Result: 71.8

Task: What viability value was documented for this molecule, "C[C@H](C(=O)O)c1cccc(C(=O)c2ccccc2)c1" ?
Result: 93

Task: Which measured viability value corresponds to CC(=O)NC(CC(=O)O)C(=O)O (configuration not stated) ?
Result: 77
